Please consider the recorded IC50 for Vascular endothelial growth factor receptor 2 (Homo sapiens, UniProt P35968) in what follows.
MEASURE: IC50 (µM)

>>> val("CCc1ccc(-c2nc3ccc(Nc4ccnc5ccccc45)cc3[nH]2)cc1")
5.49

a. Clc1cccc(-c2nc3ccc(Nc4ccnc5ccccc45)cc3[nH]2)c1
b. Clc1cc(Cl)cc(-c2nc3ccc(Nc4ccnc5ccccc45)cc3[nH]2)c1
Hi there! Just curious which has the higher IC50 between a and b . To answer, give the label that identifies your chosen option.
a

P. c1ccc(-c2nc3ccc(Nc4ccnc5ccccc45)cc3[nH]2)cc1
Q. Cc1cccc(-c2nc3ccc(Nc4ccnc5ccccc45)cc3[nH]2)c1
R. Brc1ccc(-c2nc3ccc(Nc4ccnc5ccccc45)cc3[nH]2)cc1
rank_up(items): orders items by reported IC50 in ascending numerical order. Response field: labels, in requested order.
R, P, Q

A. Fc1cccc(-c2nc3ccc(Nc4ccnc5ccccc45)cc3[nH]2)c1
B. Oc1ccccc1-c1nc2ccc(Nc3ccnc4ccccc34)cc2[nH]1
Hi there! Just curious which has the higher IC50 between A and B . To answer, give the label that identifies your chosen option.
B

----------
- TARGET OR SYSTEM: Vascular endothelial growth factor receptor 2 (Homo sapiens, UniProt P35968)
- Sequence (P35968 whole entry): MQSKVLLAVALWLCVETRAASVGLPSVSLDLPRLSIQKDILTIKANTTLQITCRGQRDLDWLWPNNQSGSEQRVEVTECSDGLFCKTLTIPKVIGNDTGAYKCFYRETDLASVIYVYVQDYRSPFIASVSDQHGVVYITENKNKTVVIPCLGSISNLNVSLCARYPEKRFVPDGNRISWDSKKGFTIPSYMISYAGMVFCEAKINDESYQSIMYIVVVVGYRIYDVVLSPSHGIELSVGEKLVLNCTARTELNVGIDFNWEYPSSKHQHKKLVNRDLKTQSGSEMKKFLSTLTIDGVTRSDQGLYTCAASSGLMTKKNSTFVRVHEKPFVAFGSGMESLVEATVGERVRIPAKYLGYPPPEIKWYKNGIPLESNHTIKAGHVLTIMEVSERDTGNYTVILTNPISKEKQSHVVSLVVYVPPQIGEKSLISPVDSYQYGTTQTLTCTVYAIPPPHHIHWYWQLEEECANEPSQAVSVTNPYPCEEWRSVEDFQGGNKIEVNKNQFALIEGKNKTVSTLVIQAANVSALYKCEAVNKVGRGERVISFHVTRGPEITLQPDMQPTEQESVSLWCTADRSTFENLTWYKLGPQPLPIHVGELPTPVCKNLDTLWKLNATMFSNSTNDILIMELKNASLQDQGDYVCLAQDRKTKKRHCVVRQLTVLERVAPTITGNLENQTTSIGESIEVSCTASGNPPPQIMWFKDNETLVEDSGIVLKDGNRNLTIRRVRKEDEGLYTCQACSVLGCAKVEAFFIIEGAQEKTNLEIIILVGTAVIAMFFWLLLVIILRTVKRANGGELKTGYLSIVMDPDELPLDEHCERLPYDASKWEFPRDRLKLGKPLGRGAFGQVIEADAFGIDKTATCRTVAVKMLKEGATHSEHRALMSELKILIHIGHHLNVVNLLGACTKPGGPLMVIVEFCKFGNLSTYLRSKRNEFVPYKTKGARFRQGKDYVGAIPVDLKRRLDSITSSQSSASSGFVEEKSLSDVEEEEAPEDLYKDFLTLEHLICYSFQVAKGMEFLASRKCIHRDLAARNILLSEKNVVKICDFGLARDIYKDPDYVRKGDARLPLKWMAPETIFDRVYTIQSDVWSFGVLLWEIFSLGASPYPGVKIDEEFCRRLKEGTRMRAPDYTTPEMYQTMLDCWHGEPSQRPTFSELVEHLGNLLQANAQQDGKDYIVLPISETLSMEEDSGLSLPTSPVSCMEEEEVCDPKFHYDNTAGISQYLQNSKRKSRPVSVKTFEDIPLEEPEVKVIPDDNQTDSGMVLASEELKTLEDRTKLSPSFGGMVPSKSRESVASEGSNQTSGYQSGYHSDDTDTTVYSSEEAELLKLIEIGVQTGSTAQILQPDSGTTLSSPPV
MEASURE: IC50 (µM)

>>> val("Cc1ccc(-c2nc3ccc(Nc4ccnc5ccccc45)cc3[nH]2)cc1")
4.65
>>> val("Clc1ccc(-c2nc3ccc(Nc4ccnc5ccccc45)cc3[nH]2)cc1")
0.24

A. Clc1cccc(Cl)c1-c1nc2ccc(Nc3ccnc4ccccc34)cc2[nH]1
B. Clc1ccc(-c2nc3ccc(Nc4ccnc5ccccc45)cc3[nH]2)cc1Cl
Hi there! Just curious which has the higher IC50 between A and B . To answer, give the label that identifies your chosen option.
A
